test system: MFM-223; test: normalised response (% of control), CellTiter-Glo; higher = more viable cells (100 = DMSO, 0 = benzethonium chloride kill control); settings: incubation time: 72 h
Listed molecules paired with reported normalised response
Your answer should be a plain number; it is taken to be in %.

Answered examples (6):
molecule="CCCc1cc(C)[nH]c(=O)c1CNC(=O)c1cc(-c2ccnc(N3CCN(C)CC3)c2)cc2c1cnn2C(C)C [GSK343] (1 nM)" numeric_result=94.7
molecule="CCN(CC)CCOc1ccc(C(=C(Cl)c2ccccc2)c2ccccc2)cc1 [Clomifene] (1000 nM)" numeric_result=100
molecule="C[C@@H]1C[C@H]2[C@@H]3CCC4=CC(=O)C=C[C@]4(C)[C@@]3(F)[C@@H](O)C[C@]2(C)[C@@]1(O)C(=O)CO [Dexamethasone] (1000 nM)" numeric_result=93.5
molecule="NC1(c2ccc(-c3nc4ccn5c(=O)[nH]nc5c4cc3-c3ccccc3)cc2)CCC1 [MK-2206] (1 nM)" numeric_result=109
molecule="Cn1nnc2c(C(N)=O)ncn2c1=O [Temozolomide] (10 nM)" numeric_result=97.5
molecule="COc1cc2c(cc1-c1c(C)noc1C)ncc1[nH]c(=O)n([C@H](C)c3ccccn3)c12 [I-BET151] (10 nM)" numeric_result=103

Ask | Any idea what normalised response was measured for COc1cc2c(cc1-c1c(C)noc1C)ncc1[nH]c(=O)n([C@H](C)c3ccccn3)c12 [I-BET151] (1 nM) ?
Reply | 97.8

Ask | Dear colleague, I am looking for the recorded normalised response of the following molecule: CN1CCc2c(c3ccccc3n2Cc2ccc(C(=O)NO)cc2)C1 [Tubastatin A] (1000 nM)
Reply | 96.9

---

system: MCF-10A; test: normalised response (% of control), CellTiter-Glo; higher = more viable cells (100 = DMSO, 0 = benzethonium chloride kill control); conditions: incubation time: 72 h
reported_property: normalised response
The number alone won't do; follow it with the unit.

Examples from the recorded data:
compound="CC[C@@H]1C(=O)N(C)c2cnc(Nc3ccc(C(=O)N[C@H]4CC[C@H](N5CCN(CC6CC6)CC5)CC4)cc3OC)nc2N1C(C)C [Volasertib] (0.1 nM)" result=88.1%
compound="NC(=O)NO [Hydroxyurea] (100 nM)" result=104%
compound="Cn1cc(C[C@@H](N)C(=O)O)c2ccccc21 [1-methyl-D-tryptophan] (0.5 nM)" result=97.1%

Ask | Requested field: normalised response. Item: NC(=O)c1cccc2cn(-c3ccc([C@@H]4CCCNC4)cc3)nc12 [MK-4827] (1 nM)
Reply | 102%

---

Entries and their normalised response
test system: CAL-85-1; assay: normalised response (% of control), CellTiter-Glo; higher = more viable cells (100 = DMSO, 0 = benzethonium chloride kill control); details: incubation time: 72 h
I only need the number, in %, no unit after it.

molecule="Nc1nc(Cl)nc2c1ncn2[C@@H]1O[C@H](CO)[C@@H](O)[C@@H]1F [Clofarabine] (100 nM)" numeric_result=93.2

Ask | Please tell me: normalised response of COc1cc2c(N3CCN(C(=O)Nc4ccc(OC(C)C)cc4)CC3)ncnc2cc1OCCCN1CCCCC1 [Tandutinib] (10 nM) , system CAL-85-1?
Reply | 109

Ask | CAL-85-1 / normalised response / N[C@@H](Cc1ccc(N(CCCl)CCCl)cc1)C(=O)O [Melphalan] (125 nM) : value?
Reply | 105

Ask | Identify the measured normalised response of CCCCCOC(=O)Nc1nc(=O)n([C@@H]2O[C@H](C)[C@@H](O)[C@H]2O)cc1F [Capecitabine] (100 nM) for CAL-85-1.
Reply | 95.4

Ask | Given the entry CO[C@H](C(=O)[C@@H](O)[C@@H](C)O)[C@@H]1Cc2cc3cc(O[C@H]4C[C@@H](O[C@@H]5C[C@@H](O)[C@H](O)[C@@H](C)O5)[C@H](O)[C@@H](C)O4)c(C)c(O)c3c(O)c2C(=O)[C@H]1O[C@H]1C[C@@H](O[C@@H]2C[C@@H](O)[C@@H](O[C@@H]3C[C@](C)(O)[C@H](O)[C@@H](C)O3)[C@@H](C)O2)[C@H](O)[C@@H](C)O1 [Plicamycin] (100 nM) , what normalised response was observed with CAL-85-1?
Reply | 100

Ask | Given the entry CN1CCN(c2nc(C3=C(c4c[nH]c5ccccc45)C(=O)NC3=O)c3ccccc3n2)CC1 [Sotrastaurin] (100 nM) , what normalised response was observed with CAL-85-1?
Reply | 102

---

Below is a list of entries, each paired with its recorded normalised response value.
tested on: HCC1599; experiment: normalised response (% of control), CellTiter-Glo; higher = more viable cells (100 = DMSO, 0 = benzethonium chloride kill control); conditions: incubation time: 72 h
Please give a number only; it is taken to be in %.

Some solved cases for reference:
molecule="Cc1c(N)nc([C@H](CC(N)=O)NC[C@H](N)C(N)=O)nc1C(=O)N[C@H](C(=O)N[C@H](C)[C@@H](O)[C@H](C)C(=O)N[C@H](C(=O)NCCc1nc(-c2nc(C(=O)NCCC[S+](C)C)cs2)cs1)[C@@H](C)O)[C@@H](OC1OC(CO)C(O)C(O)C1OC1OC(CO)C(O)C(OC(N)=O)C1O)c1cnc[nH]1 (stereo partly specified) [Bleomycin] (10 nM)" system_tested=HCC1599 numeric_result=97.7
molecule="CCc1cnn2c(NCc3ccc[n+]([O-])c3)cc(N3CCCC[C@H]3CCO)nc12 [Dinaciclib] (100 nM)" system_tested=HCC1599 numeric_result=10.5
molecule="COc1cc2c(Oc3ccc(NC(=O)C4(C(=O)Nc5ccc(F)cc5)CC4)cc3F)ccnc2cc1OCCCN1CCOCC1 [Foretinib] (100 nM)" system_tested=HCC1599 numeric_result=89.8

Ask | // normalised response lookup, key: NC(=O)NO [Hydroxyurea] (100 nM)
Reply | 94.1

Ask | Name the recorded normalised response for O=C(c1cc(Cc2n[nH]c(=O)c3ccccc23)ccc1F)N1CCN(C(=O)C2CC2)CC1 [Olaparib] (10 nM) .
Reply | 113

Ask | Look up normalised response: NC(=O)c1cccc2cn(-c3ccc([C@@H]4CCCNC4)cc3)nc12 [MK-4827] (1000 nM)
Reply | 107

---

test system: BT-549; experiment: normalised response (% of control), CellTiter-Glo; higher = more viable cells (100 = DMSO, 0 = benzethonium chloride kill control); details: incubation time: 72 h
reported_property: normalised response (%)
Just the number please, in %, no unit attached.

molecule="NC1(c2ccc(-c3nc4ccn5c(=O)[nH]nc5c4cc3-c3ccccc3)cc2)CCC1 [MK-2206] (0.1 nM)" numeric_result=99.5

Ask | May I ask what normalised response has been recorded for CCc1cnn2c(NCc3ccc[n+]([O-])c3)cc(N3CCCC[C@H]3CCO)nc12 [Dinaciclib] (100 nM) ?
Reply | 12.7

Ask | // query normalised response value for entry O=C(O)CC[C@H]1CC[C@@](c2cc(F)ccc2F)(S(=O)(=O)c2ccc(Cl)cc2)CC1 [MK-0752] (100 nM)
Reply | 91.6

---

system: HCC1937; experiment: normalised response (% of control), CellTox Green; higher = less cell death (100 = DMSO, 0 = benzethonium chloride kill control); details: incubation time: 72 h
Use True when the recorded normalised response is no lower than 90%; use False when it is lower.

Ask | Can CCCCCOC(=O)Nc1nc(=O)n([C@@H]2O[C@H](C)[C@@H](O)[C@H]2O)cc1F [Capecitabine] (10000 nM) be said to have normalised response at or above 90%?
Reply | False

---

test system: BT-474; experiment: normalised response (% of control), CellTiter-Glo; higher = more viable cells (100 = DMSO, 0 = benzethonium chloride kill control); conditions: incubation time: 72 h
Readings of normalised response for the listed molecules
Write the numeric value and append its unit.

molecule="Cc1c(N)nc([C@H](CC(N)=O)NC[C@H](N)C(N)=O)nc1C(=O)N[C@H](C(=O)N[C@H](C)[C@@H](O)[C@H](C)C(=O)N[C@H](C(=O)NCCc1nc(-c2nc(C(=O)NCCC[S+](C)C)cs2)cs1)[C@@H](C)O)[C@@H](OC1OC(CO)C(O)C(O)C1OC1OC(CO)C(O)C(OC(N)=O)C1O)c1cnc[nH]1 (stereo partly drawn) [Bleomycin] (1 nM)" result=96.3%
molecule="CCCc1cc(C)[nH]c(=O)c1CNC(=O)c1cc(-c2ccnc(N3CCN(C)CC3)c2)cc2c1cnn2C(C)C [GSK343] (1 nM)" result=94.2%
molecule="CC/C(=C(\\c1ccccc1)c1ccc(OCCN(C)C)cc1)c1ccccc1 [Tamoxifen] (1000 nM)" result=95.9%
molecule="Nc1nc(Cl)nc2c1ncn2[C@@H]1O[C@H](CO)[C@@H](O)[C@@H]1F [Clofarabine] (1 nM)" result=101%
molecule="CC(C)NC[C@@H](C(=O)N1CCN(c2ncnc3c2[C@H](C)C[C@H]3O)CC1)c1ccc(Cl)cc1 [GDC-0068] (1 nM)" result=99.3%

Ask | Which measured normalised response value corresponds to C[C@]12C=CC(=O)C=C1CC[C@@H]1[C@@H]2C(=O)C[C@@]2(C)[C@H]1CC[C@]2(O)C(=O)CO [Prednisone] (10 nM) ?
Reply | 103%
